# TESTED_SYSTEM: M1 -type muscarinic cholinergic receptor (Rattus norvegicus)
# Sequence (P08482 whole entry): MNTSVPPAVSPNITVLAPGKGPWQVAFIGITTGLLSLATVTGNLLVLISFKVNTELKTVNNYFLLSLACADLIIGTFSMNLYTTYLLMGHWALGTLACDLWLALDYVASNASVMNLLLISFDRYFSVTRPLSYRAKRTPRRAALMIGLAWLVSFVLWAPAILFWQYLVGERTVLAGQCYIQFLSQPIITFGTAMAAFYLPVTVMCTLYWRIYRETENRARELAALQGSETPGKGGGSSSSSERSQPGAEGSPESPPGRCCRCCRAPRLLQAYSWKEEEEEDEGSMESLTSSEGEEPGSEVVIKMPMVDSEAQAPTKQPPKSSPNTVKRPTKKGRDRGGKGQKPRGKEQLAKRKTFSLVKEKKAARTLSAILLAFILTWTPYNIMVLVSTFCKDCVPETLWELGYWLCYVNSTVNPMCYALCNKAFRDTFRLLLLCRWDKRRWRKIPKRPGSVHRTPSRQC
# MEASUREMENT_PROTOCOL: biochemical
# Format: binding
# PROTOCOL_CONDITIONS: rat hippocampus homogenate, 3H-PZ 1 nM, 2 hours at 4° C., pH 7.40; read-out: IC50 3H-PZ (M1)
pIC50: −log10 of the molar value.
I would appreciate it if you labelled entries Criterion met when pIC50 is 6 or higher, otherwise Criterion not met.

Some solved cases for reference:
| COMPOUND | CAT |
| --- | --- |
| Cc1cc(C)c(-c2csc(NCc3cccnc3)n2)c(C)c1 [SR 44839 A] | Criterion met |
| COc1ccccc1-c1csc(NCCCN(C)C)n1 [SR 44465 A] | Criterion not met |
| Cc1sc(NCCCN(C)C)nc1-c1ccccc1 [SR 44769 A] | Criterion not met |
| CN1CCN(CCCNc2nc(-c3ccc(F)cc3)cs2)CC1 [SR 44862 A] | Criterion not met |
| CCc1nc(NCCCN(CC)CC)sc1-c1ccccc1 [SR 44963 A] | Criterion met |

Let's switch to this compound now.
Task item: Item Cc1cc(C)c(-c2csc(NCCc3ccccn3)n2)c(C)c1 [SR 44905 A] with pIC50 of 6 or above?
Reply: Criterion not met

###

ratio R of the IC50 values for the M1 and M2 receptors reference
# TESTED_SYSTEM: UniProt:P08482
# MEASUREMENT_PROTOCOL: biochemical
# Type: binding
# PROTOCOL_CONDITIONS: selectivity; values correspond to IC50 M2 / IC50 M1
Form field (numeric): enter value without unit.

Consider the worked cases shown below.
| SMI | MEASURED_NUMBER |
| --- | --- |
| CCN(CC)CCNc1nc(-c2c(C)cc(C)cc2C)cs1 | 41 |
| CCN(CC)CCCNc1nc(-c2c(C)cc(C)cc2C)cs1 | 37 |

Task item: Entry under review: `CN(C)CCCNc1nc(-c2ccc(F)cc2)cs1` . Reported ratio R of the IC50 values for the M1 and M2 receptors?
Reply: 100

Task item: Field entry: `CN(C)CCCNc1nc(-c2ccc(F)cc2F)cs1`
Reply: 43

###

IC50 reference
# TESTED_SYSTEM: M1 -type muscarinic cholinergic receptor (Rattus norvegicus)
# MEASUREMENT_PROTOCOL: biochemical
# Assay type: binding
# PROTOCOL_CONDITIONS: rat hippocampus homogenate, 3H-PZ 1 nM, 2 hours at 4° C., pH 7.40; read-out: IC50 3H-PZ (M1)
Respond with the bare value in nM.

| MOLECULE | IC50 / nM |
| --- | --- |
| NCCCNc1nc(-c2ccc(F)cc2)cs1 | 6300 |
| CCN(CC)CCCNc1nc(C)c(-c2ccccc2)s1 | 700 |
| CN(C)CCCNc1nc(-c2ccc(F)cc2F)cs1 | 600 |
| CC(C)N(CCCNc1nc(-c2ccc(F)cc2F)cs1)C(C)C | 130 |
| CCN(CC)CCCNc1nc(-c2ccccc2)c(-c2ccccc2)s1 | 360 |
| c1csc(-c2csc(NCCN3CCOCC3)n2)c1 | 7000 |
| c1ccc2cc(-c3csc(NCCN4CCCCC4)n3)ccc2c1 | 3400 |
| c1ccc(-c2nc(NCCc3ccccn3)sc2-c2ccccc2)cc1 | 2400 |

Task item: Entry under review: `CN(C)CCCNc1ncc(-c2ccccc2)s1` . Reported IC50?
Reply: 1800

Task item: Field entry: `Cc1cc(C)c(-c2csc(NCCCN3CCN(C)CC3)n2)c(C)c1`
Reply: 400

Task item: Field entry: `CN(C)CCCNc1nc2c(s1)CCCc1ccccc1-2`
Reply: 1900

Task item: Field entry: `CC(C)N(CCNc1ncc(-c2ccccc2)s1)C(C)C`
Reply: 800

Task item: Field entry: `c1ccc(-c2cnc(NCCN3CCCC3)s2)cc1`
Reply: 1000

Task item: Field entry: `CCN(CC)CCCNc1nc(-c2ccccc2)c(C)s1`
Reply: 1500

Task item: Field entry: `CCN(CC)CCCNc1nc(-c2ccccc2)cs1`
Reply: 400

Task item: Field entry: `Cc1cc(C)c(-c2csc(NCc3ccccn3)n2)c(C)c1`
Reply: 6000

Task item: Field entry: `CCN(CC)CCNc1nc(-c2ccccc2)c(-c2ccccc2)s1`
Reply: 430

Task item: Field entry: `CCN(CC)CCNc1nc(C)c(-c2ccccc2)s1`
Reply: 1700

Task item: Field entry: `c1ccc(-c2cnc(NCCN3CCCCC3)s2)cc1`
Reply: 1500

Task item: Field entry: `CN(C)CCCNc1nc(C2CCCCC2)cs1`
Reply: 200

Task item: Field entry: `Cc1cc(C)c(-c2csc(NCCN(C(C)C)C(C)C)n2)c(C)c1`
Reply: 130

Task item: Field entry: `CN(C)CCCNc1nc(-c2cccc([N+](=O)[O-])c2)cs1`
Reply: 5000

Cited source: patent US5378706A
